- Measurement description: In vivo pharmacokinetic study in rats, IV and PO dosing (Example 6)
- Experimental parameters: plasma; rat, 200 mg/kg PO, mean
Structures can show the parent of a compound that is named as a salt.
Entries and their Tmax
Use min as the unit, but write only the number.

Example results:
>  <Molecule>
[2H]C([2H])(O)CC([2H])([2H])C(=O)[O-].[Na+] [IV-b, sodium salt, Sodium 2,2,4,4-d4-4-hydroxybutanoate]

>  <Parameter measured>
Tmax

>  <Unit of measure>
min

>  <Obs value>
37.8

$$$$
>  <Molecule>
[2H]C([2H])(CCO)C(=O)[O-].[Na+] [sodium 2,2-dideutero-4-hydroxybutanoate]

>  <Parameter measured>
Tmax

>  <Unit of measure>
min

>  <Obs value>
37.8

$$$$

// Tmax lookup, molecule = O=C(O)CCCO [4-hydroxybutyric acid, sodium salt, sodium salt of 4-hydroxybutyric acid, reference compound] , result: 30

* * *

- Measurement description: In vivo pharmacokinetic study in rats, IV and PO dosing (Example 6)
- Experimental parameters: plasma; rat, 200 mg/kg, PO vs IV AUC0-∞
Counter-ions that a name gives are not always drawn.
Entries and their bioavailability
Use % as the unit, but write only the number.

>  <Compound>
[2H]C([2H])(O)CC([2H])([2H])C(=O)[O-].[Na+] [IV-b, sodium salt, Sodium 2,2,4,4-d4-4-hydroxybutanoate]

>  <bioavailability, %>
40

$$$$
>  <Compound>
O=C(O)CCCO [4-hydroxybutyric acid, sodium salt, sodium salt of 4-hydroxybutyric acid, reference compound]

>  <bioavailability, %>
40

$$$$

// bioavailability lookup, compound = [2H]C([2H])(CCO)C(=O)[O-].[Na+] [sodium 2,2-dideutero-4-hydroxybutanoate] , result: 41

* * *

Entries and their AUC(0-inf)
- Measurement description: In vivo pharmacokinetic study in rats, IV and PO dosing (Example 6)
- Experimental parameters: plasma; rat, 200 mg/kg PO, mean
Where a name gives a salt, the structure may show the parent alone.
Use µg·h/mL as the unit, but write only the number.

Example results:
>  <Compound>
[2H]C([2H])(O)CC([2H])([2H])C(=O)[O-].[Na+] [IV-b, sodium salt, Sodium 2,2,4,4-d4-4-hydroxybutanoate]

>  <Unit of measure>
µg·h/mL

>  <AUC(0-inf)>
260

$$$$
>  <Compound>
[2H]C([2H])(CCO)C(=O)[O-].[Na+] [sodium 2,2-dideutero-4-hydroxybutanoate]

>  <Unit of measure>
µg·h/mL

>  <AUC(0-inf)>
193

$$$$

Pending compound:
// AUC(0-inf) lookup, compound = O=C(O)CCCO [4-hydroxybutyric acid, sodium salt, sodium salt of 4-hydroxybutyric acid, reference compound] , result: 170

* * *

- Measurement description: In vivo pharmacokinetic study in rats, IV and PO dosing (Example 6)
- Experimental parameters: plasma; rat, 200 mg/kg IV, mean; Cmin at 2 hr
Parameter measured: concentration at 2 hr (ng/mL)
Use ng/mL as the unit, but write only the number.

>  <Compound>
[2H]C([2H])(CCO)C(=O)[O-].[Na+] [sodium 2,2-dideutero-4-hydroxybutanoate]

>  <concentration at 2 hr [ng/mL]>
19000

$$$$

// concentration at 2 hr lookup, compound = [2H]C([2H])(O)CC([2H])([2H])C(=O)[O-].[Na+] [IV-b, sodium salt, Sodium 2,2,4,4-d4-4-hydroxybutanoate] , result: 76000

* * *

- Measurement description: In vivo pharmacokinetic study in rats, oral dosing (Example 7)
- Experimental parameters: in vivo; rat, 200 mg/kg PO, mean
Counter-ions that a name gives are not always drawn.
Parameter measured: half-life

Example results:
>  <Compound>
[2H]C([2H])(O)CCC(=O)O [IV-a, sodium salt]

>  <half-life>
28.8 min

$$$$
>  <Compound>
[2H]C([2H])(O)CC([2H])([2H])C(=O)[O-].[Na+] [IV-b, sodium salt, Sodium 2,2,4,4-d4-4-hydroxybutanoate]

>  <half-life>
27.6 min

$$$$
>  <Compound>
O=C(O)CCCO [4-hydroxybutyric acid, sodium salt, sodium salt of 4-hydroxybutyric acid, reference compound]

>  <half-life>
60.6 min

$$$$

Pending compound:
// half-life lookup, compound = [2H]C([2H])(O)C([2H])([2H])C([2H])([2H])C(=O)O [IV-d, sodium salt] , result: 27.6 min

* * *

- Measurement description: In vivo pharmacokinetic study in rats, IV and PO dosing (Example 6)
- Experimental parameters: plasma; rat, 200 mg/kg PO, mean; Cmin at 4 hr
Counter-ions that a name gives are not always drawn.
Entries and their concentration at 4 hr
Use ng/mL as the unit, but write only the number.

// concentration at 4 hr lookup, compound = [2H]C([2H])(O)CC([2H])([2H])C(=O)[O-].[Na+] [IV-b, sodium salt, Sodium 2,2,4,4-d4-4-hydroxybutanoate] , result: 5000

// concentration at 4 hr lookup, compound = O=C(O)CCCO [4-hydroxybutyric acid, sodium salt, sodium salt of 4-hydroxybutyric acid, reference compound] , result: 2000

// concentration at 4 hr lookup, compound = [2H]C([2H])(CCO)C(=O)[O-].[Na+] [sodium 2,2-dideutero-4-hydroxybutanoate] , result: 1000

* * *

Entries and their Cmax
- Measurement description: In vivo pharmacokinetic study in rats, oral dosing (Example 7)
- Experimental parameters: in vivo; rat, 200 mg/kg PO, mean
Counter-ions that a name gives are not always drawn.
Use µg/mL as the unit, but write only the number.

>  <Compound>
[2H]C([2H])(O)C([2H])([2H])C([2H])([2H])C(=O)O [IV-d, sodium salt]

>  <Obs value>
188

$$$$
>  <Compound>
[2H]C([2H])(O)CCC(=O)O [IV-a, sodium salt]

>  <Obs value>
168

$$$$
>  <Compound>
[2H]C([2H])(O)CC([2H])([2H])C(=O)[O-].[Na+] [IV-b, sodium salt, Sodium 2,2,4,4-d4-4-hydroxybutanoate]

>  <Obs value>
201

$$$$

Pending compound:
// Cmax lookup, compound = O=C(O)CCCO [4-hydroxybutyric acid, sodium salt, sodium salt of 4-hydroxybutyric acid, reference compound] , result: 94

* * *

- Measurement description: In vivo pharmacokinetic study in rats, oral dosing (Example 7)
- Experimental parameters: in vivo; rat, 200 mg/kg PO, mean
Where a name gives a salt, the structure may show the parent alone.
Entries and their Tmax
Use h as the unit, but write only the number.

>  <Compound>
O=C(O)CCCO [4-hydroxybutyric acid, sodium salt, sodium salt of 4-hydroxybutyric acid, reference compound]

>  <Obs value>
0.79

$$$$

// Tmax lookup, compound = [2H]C([2H])(O)C([2H])([2H])C([2H])([2H])C(=O)O [IV-d, sodium salt] , result: 1.67

// Tmax lookup, compound = [2H]C([2H])(O)CCC(=O)O [IV-a, sodium salt] , result: 1.17

// Tmax lookup, compound = [2H]C([2H])(O)CC([2H])([2H])C(=O)[O-].[Na+] [IV-b, sodium salt, Sodium 2,2,4,4-d4-4-hydroxybutanoate] , result: 1.5

* * *

- Measurement description: In vivo pharmacokinetic study in rats, IV and PO dosing (Example 6)
- Experimental parameters: plasma; rat, 200 mg/kg PO, mean
Where a name gives a salt, the structure may show the parent alone.
Entries and their Cmax
Use µg/mL as the unit, but write only the number.

Example results:
>  <Compound>
[2H]C([2H])(CCO)C(=O)[O-].[Na+] [sodium 2,2-dideutero-4-hydroxybutanoate]

>  <Cmax [µg/mL]>
153

$$$$
>  <Compound>
O=C(O)CCCO [4-hydroxybutyric acid, sodium salt, sodium salt of 4-hydroxybutyric acid, reference compound]

>  <Cmax [µg/mL]>
150

$$$$

Pending compound:
// Cmax lookup, compound = [2H]C([2H])(O)CC([2H])([2H])C(=O)[O-].[Na+] [IV-b, sodium salt, Sodium 2,2,4,4-d4-4-hydroxybutanoate] , result: 151

* * *

- Measurement description: In vivo pharmacokinetic study in rats, IV and PO dosing (Example 6)
- Experimental parameters: plasma; rat, 200 mg/kg IV, mean; read-out: Vz
Counter-ions that a name gives are not always drawn.
Parameter measured: Vd (L/kg)
Use L/kg as the unit, but write only the number.

Example results:
>  <Molecule>
[2H]C([2H])(O)CC([2H])([2H])C(=O)[O-].[Na+] [IV-b, sodium salt, Sodium 2,2,4,4-d4-4-hydroxybutanoate]

>  <Vd, L/kg>
0.3

$$$$
>  <Molecule>
[2H]C([2H])(CCO)C(=O)[O-].[Na+] [sodium 2,2-dideutero-4-hydroxybutanoate]

>  <Vd, L/kg>
0.2

$$$$

Pending molecule:
// Vd lookup, molecule = O=C(O)CCCO [4-hydroxybutyric acid, sodium salt, sodium salt of 4-hydroxybutyric acid, reference compound] , result: 0.2

* * *

- Measurement description: In vivo pharmacokinetic study in rats, oral dosing (Example 7)
- Experimental parameters: in vivo; rat, 200 mg/kg PO, mean
Where a name gives a salt, the structure may show the parent alone.
Parameter measured: AUC(0-inf) (µg·h/mL)
Use µg·h/mL as the unit, but write only the number.

>  <Compound>
[2H]C([2H])(O)CC([2H])([2H])C(=O)[O-].[Na+] [IV-b, sodium salt, Sodium 2,2,4,4-d4-4-hydroxybutanoate]

>  <Parameter measured>
AUC(0-inf)

>  <Unit of measure>
µg·h/mL

>  <Obs value>
407

$$$$

// AUC(0-inf) lookup, compound = [2H]C([2H])(O)C([2H])([2H])C([2H])([2H])C(=O)O [IV-d, sodium salt] , result: 404

// AUC(0-inf) lookup, compound = [2H]C([2H])(O)CCC(=O)O [IV-a, sodium salt] , result: 335

// AUC(0-inf) lookup, compound = O=C(O)CCCO [4-hydroxybutyric acid, sodium salt, sodium salt of 4-hydroxybutyric acid, reference compound] , result: 165
